IC50 values for the compounds below.
target: Cdk4/CyclinD1 (Homo sapiens (Human)); assay: Cdk4 kinase inhibition assay with recombinant Cdk4/CyclinD1, Rb substrate, [33P]-ATP filter plate; conditions: 25 μM ATP, read-out: Cdk 4 IC50
parameterMeasured: IC50 (nM)

C[C@H](O)Cn1c2cnccc2c2cnc(Nc3ccc(N4CCNCC4)nn3)nc21 | 281
CC[C@H](C)n1c2cnccc2c2cnc(Nc3ccc(N4CCNC(C)(C)C4)nn3)nc21 | 16
C[C@H](CO)n1c2cnccc2c2cnc(Nc3ccc(N4CCN[C@@H](C)C4)cn3)nc21 | 2000
CN(C)CCNC1CCN(c2ccc(Nc3ncc4c5ccncc5n(C5CCCC5)c4n3)nn2)CC1 | 4.9
Fc1nccc2c3cnc(Nc4ccc(N5CCNCC5)cn4)nc3n(C3CCCC3)c12 | 2
O=c1[nH]ccc2c3cnc(Nc4ccc(N5CCNCC5)cn4)nc3n(C3CCCC3)c12 | 4.7
c1cc2c3cnc(Nc4ccc(N5CCNCC5)cn4)nc3n(C3CCCCC3)c2cn1 | 11
C[C@@H]1CN(c2ccc(Nc3ncc4c5ccnc(F)c5n(C5CCCC5)c4n3)nn2)CCN1 | 3.9

====

molecular target: Cdk4/CyclinD1 (Homo sapiens (Human), UniProt P11802); experiment: Cdk4 kinase inhibition assay with recombinant Cdk4/CyclinD1, Rb substrate, [33P]-ATP filter plate; settings: 25 μM ATP, read-out: Cdk 4 IC50
Sequence (P11802 whole entry): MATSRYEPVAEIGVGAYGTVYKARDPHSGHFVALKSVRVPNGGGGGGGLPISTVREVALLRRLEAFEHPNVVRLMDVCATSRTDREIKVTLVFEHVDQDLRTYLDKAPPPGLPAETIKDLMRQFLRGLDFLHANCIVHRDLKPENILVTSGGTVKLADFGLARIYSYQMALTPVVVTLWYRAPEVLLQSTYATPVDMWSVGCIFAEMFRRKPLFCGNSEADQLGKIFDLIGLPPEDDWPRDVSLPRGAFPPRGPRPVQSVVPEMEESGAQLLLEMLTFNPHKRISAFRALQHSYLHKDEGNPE
Sequence (P24385 whole entry partner): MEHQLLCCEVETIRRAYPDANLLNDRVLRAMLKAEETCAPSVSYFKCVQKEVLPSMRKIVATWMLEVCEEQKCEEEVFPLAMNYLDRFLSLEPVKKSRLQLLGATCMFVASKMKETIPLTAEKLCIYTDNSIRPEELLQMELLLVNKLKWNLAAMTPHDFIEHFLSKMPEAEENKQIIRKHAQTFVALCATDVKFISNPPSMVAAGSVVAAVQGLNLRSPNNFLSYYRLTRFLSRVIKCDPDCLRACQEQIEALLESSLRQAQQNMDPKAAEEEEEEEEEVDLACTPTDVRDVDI
pIC50: −log10 of the molar value.
# label = t if pIC50 >= 8 else f

NC1CCN(c2nc(Nc3ncc4c5ccncc5n(C5CCCC5)c4n3)ns2)CC1 | f
c1cc2c3cnc(Nc4nc(CN5CCNCC5)cs4)nc3n(C3CCCC3)c2cn1 | t
c1cc2c3cnc(Nc4ccc(N5CCNCC5)cn4)cc3n(Cc3ccsc3)c2cn1 | f
O=C(O)c1ccc(Nc2ncc3c4ccnc(O)c4n(C4CCCC4)c3n2)nc1 | f
CC[C@@H](C)n1c2cnccc2c2cnc(Nc3ccc(N4CC[C@@H](O)C4)nn3)nc21 | f
CN(C)C1CCN(c2ccc(Nc3ncc4c5ccnc(Cl)c5n(C5CCCC5)c4n3)nc2)CC1 | t
N[C@@H]1CCN(c2ccc(Nc3ncc4c5ccncc5n(C5CCCC5)c4n3)nn2)C1 | t
C[C@@H](O)Cn1c2cnccc2c2cnc(Nc3ccc(N4CC[C@@H](O)C4)nn3)nc21 | f

====

Target: Cdk4/CyclinD1 (Homo sapiens (Human), UniProt P11802)
Experiment: Cdk4 kinase inhibition assay with recombinant Cdk4/CyclinD1, Rb substrate, [33P]-ATP filter plate
Settings: 25 μM ATP, read-out: Cdk 4 IC50
Procedure: The Cdk4 and Cdk6 inhibitory activity of the compounds is measured with a kinase inhibition assay using recombinant Cdk4/CyclinD1 or Cdk6/CyclinD3 protein complexes. The protein substrate used in the assay is the retinoblastoma protein (Rb). […] The amount of the phosphorylated Rb is determined with a TopCount (PerkinElmer). The IC50 of a compound is determined by nonlinear regression curve fitting using software program Prism 5 (GraphPad Software).
parameterMeasured: IC50 (nM)

O[C@@H]1CCN(C2CCN(c3ccc(Nc4ncc5c6ccncc6n(C6CCCC6)c5n4)nn3)CC2)C1 | 12
C[C@H]1CN(c2cnc(Nc3ncc4c5ccncc5n(C5CCCC5)c4n3)cn2)CCN1 | 9.2
c1cc(Nc2ncc3c4sncc4n(C4CCCC4)c3n2)ncc1N1CCNCC1 | 10000
CNC1CCN(c2ccc(Nc3ncc4c5ccncc5n(C5CCCC5)c4n3)nn2)CC1 | 3

====

molecular target: Cdk4/CyclinD1 (Homo sapiens (Human), UniProt P11802); assay: Cdk4 kinase inhibition assay with recombinant Cdk4/CyclinD1, Rb substrate, [33P]-ATP filter plate; conditions: 25 μM ATP, read-out: Cdk 4 IC50
Simple rule here: IC50 less than 10 nM is met, otherwise not met.

Cn1c(=O)ccc2c3cnc(Nc4ccc(N5CC[C@@H](O)C5)cn4)nc3n(C3CCCC3)c21 | not met
c1cc2c3cnc(Nc4nsc(NC5CCNC5)n4)nc3n(C3CCCC3)c2cn1 (stereo not drawn) | not met
O=C(c1cnc(Nc2ncc3c4ccncc4n(C4CCCC4)c3n2)s1)N1CCNCC1 | not met
c1cc2c3cnc(Nc4ccc(N5CCNCC5)cn4)nc3n(C3CCCC3)c2nn1 | not met
c1cc2c3cnc(Nc4ccc(N5CCC(N6CCCC6)CC5)cn4)nc3n(C3CCCC3)c2nn1 | not met
c1cc2c3cnc(Nc4ccc(N[C@H]5CCNC5)nn4)nc3n(C3CCCC3)c2cn1 | met
NC1CCN(c2ccc(Nc3ncc4c5cc[nH]c(=O)c5n(C5CCCC5)c4n3)nn2)CC1 | met
CC1CN(c2ccc(Nc3ncc4c5ccccc5n(C5CCCC5)c4n3)nn2)CC(C)N1 (stereo not drawn) | not met
C[C@H]1CN(c2ccc(Nc3ncc4c5ccncc5n([C@@H]5CCNC5)c4n3)nc2)CCN1 | not met
c1cc2c3cnc(Nc4ccc(N5CCCNCC5)cn4)nc3n(C3CCCC3)c2cn1 | met
CCN(CCO)C1CCN(c2ccc(Nc3ncc4c5ccncc5n(C5CCCC5)c4n3)nc2)CC1 | met
O[C@H]1CCN(c2ccc(Nc3ncc4c5ccnc(F)c5n(C5CCCC5)c4n3)nn2)C1 | met
O[C@@H]1CCN(c2ccc(Nc3ncc4c5ccccc5n(C5CCCC5)c4n3)nc2)C1 | not met
CNC1CCN(c2ccc(Nc3ncc4c5ccncc5n([C@@H]5CCNC5)c4n3)nc2)CC1 | not met
CC1CN(c2ccc(Nc3ncc4c5cc[nH]c(=O)c5n(C5CCCC5)c4n3)nn2)CC(C)N1 (stereo not drawn) | not met
C[C@H]1CN(c2ccc(Nc3ncc4c5ccncc5n(CCCO)c4n3)nc2)CCN1 | not met
FCCNC1CCN(c2ccc(Nc3ncc4c5ccncc5n(C5CCCC5)c4n3)nc2)CC1 | met
CN(C)C1CCN(c2ccc(Nc3ncc4c5ccncc5n(C5CCCC5)c4n3)nn2)CC1 | met
OCCCNC1CCN(c2ccc(Nc3ncc4c5ccncc5n(C5CCCC5)c4n3)nn2)CC1 | met
CN(C)C1CCN(c2nc(Nc3ncc4c5ccncc5n(C5CCCC5)c4n3)ns2)CC1 | not met
OCC1CCN(c2ccc(Nc3ncc4c5ccncc5n(C5CCCC5)c4n3)nn2)CC1 | met
O[C@H]1CCN(c2ccc(Nc3ncc4c5ccncc5n(C5CCCC5)c4n3)nn2)C1 | met
C[C@H](CO)n1c2cnccc2c2cnc(Nc3ccc(N4CCNCC4)cn3)nc21 | not met
Cn1c(=O)ccc2c3cnc(Nc4ccc(N5CCNCC5)cn4)nc3n(C3CCCC3)c21 | met
OC1CCN(Cc2ccc(Nc3ncc4c5ccncc5n(C5CCCC5)c4n3)nc2)CC1 | met
C[C@@H]1CN(c2ccc(Nc3ncc4c5ccnc(F)c5n(C5CCCC5)c4n3)nc2)CCN1 | met
CNC1CCN(c2ccc(Nc3ncc4c5ccnc(F)c5n(C5CCCC5)c4n3)nc2)CC1 | met
c1cnc2c(c1)c1cnc(Nc3ccc(N4CCNCC4)cn3)nc1n2C1CCCC1 | met
CN(C)C1CC2CCC(C1)N2c1ccc(Nc2ncc3c4ccncc4n(C4CCCC4)c3n2)nc1 (stereo not drawn) | met
CC[C@H](C)n1c2cnccc2c2cnc(Nc3ccc(N4CCC(NC)CC4)cn3)nc21 | not met
C[C@H](CO)Nc1ccc(Nc2ncc3c4ccncc4n(C4CCCC4)c3n2)nn1 | met
CC1CCN(c2cnc(Nc3ncc4c5ccncc5n(C5CCCC5)c4n3)cn2)C1 (stereo not drawn) | not met

====

biological target: Cdk4/CyclinD1 (Homo sapiens (Human), UniProt P11802); test: Cdk4 kinase inhibition assay with recombinant Cdk4/CyclinD1, Rb substrate, [33P]-ATP filter plate; assay type: biochemical; details: 25 μM ATP, read-out: Cdk 4 IC50
pIC50: −log10 of the molar value.
parameterMeasured: pIC50

CC[C@@H](C)n1c2cnccc2c2cnc(Nc3ccc(N4CCN[C@@H](C)C4)cn3)nc21 [Example 321] | 8.15
O[C@H]1CCN(C2CCN(c3ccc(Nc4ncc5c6ccncc6n(C6CCCC6)c5n4)nc3)CC2)C1 [Example 462] | 6.47
O=C(O)Cc1ccc(Nc2ncc3c4ccncc4n(C4CCCC4)c3n2)nc1 [Example 241] | 6.75
O[C@@H]1CCN(c2ccc(Nc3ncc4c5ccncc5n([C@H]5CCC[C@H]5O)c4n3)nn2)C1 [Example 366] | 6.48

====

molecular target: Cdk6/CyclinD3 (Homo sapiens (Human), UniProt Q00534); test: Cdk6 kinase inhibition assay with recombinant Cdk6/CyclinD3, Rb substrate, [33P]-ATP filter plate; conditions: 25 μM ATP, read-out: Cdk 6 IC50
Sequence (Q00534 whole entry): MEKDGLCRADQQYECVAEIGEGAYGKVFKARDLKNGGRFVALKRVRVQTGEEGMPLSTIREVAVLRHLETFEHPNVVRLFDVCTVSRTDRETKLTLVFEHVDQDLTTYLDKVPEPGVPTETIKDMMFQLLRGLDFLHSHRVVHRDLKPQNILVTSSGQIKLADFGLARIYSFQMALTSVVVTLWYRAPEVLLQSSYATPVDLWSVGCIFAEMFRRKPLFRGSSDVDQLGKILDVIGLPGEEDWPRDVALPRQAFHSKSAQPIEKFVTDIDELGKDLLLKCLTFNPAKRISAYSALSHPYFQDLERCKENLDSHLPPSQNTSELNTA
Sequence (P30281 whole entry partner): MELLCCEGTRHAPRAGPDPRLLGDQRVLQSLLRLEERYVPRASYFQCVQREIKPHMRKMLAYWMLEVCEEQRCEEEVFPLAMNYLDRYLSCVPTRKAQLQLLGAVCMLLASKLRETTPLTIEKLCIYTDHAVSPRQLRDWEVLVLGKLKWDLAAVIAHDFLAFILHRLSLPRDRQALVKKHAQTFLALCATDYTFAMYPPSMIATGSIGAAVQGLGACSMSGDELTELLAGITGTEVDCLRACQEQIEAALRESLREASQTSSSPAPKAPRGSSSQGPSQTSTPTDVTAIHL
pIC50: −log10 of the molar value.
This listing pairs compounds with measured pIC50.
parameterMeasured: pIC50

O=S1(=O)CCN(c2ccc(Nc3ncc4c5ccncc5n(C5CCCC5)c4n3)nc2)CC1 [Example 66] | 7.14
c1ccc2c(c1)c1cnc(Nc3ccc(N4CCNCC4)nn3)nc1n2C1CCCC1 [Example 307] | 8.06
CN(C)C1CCN(c2ccc(Nc3ncc4c5ccncc5n([C@@H]5CCNC5)c4n3)nc2)CC1 [Example 349] | 6.47
Oc1nccc2c3cnc(Nc4ccc(CN5CCNCC5)cn4)nc3n(C3CCCC3)c12 [Example 214] | 7.68
CN(C)C1CCN(c2ccc(Nc3ncc4c5ccnc(F)c5n(C5CCCC5)c4n3)nn2)CC1 [Example 252] | 8.30
FC(F)(F)CNC1CCN(c2ccc(Nc3ncc4c5ccncc5n(C5CCCC5)c4n3)nn2)CC1 [Example 456] | 6.42

FYI, the data here is from patent US8841312B2.
